- Tested on: MRC-5
- testDescription: MTT cytotoxicity assay, monolayer culture
- Format: cell-based, human
- details: 72 h continuous drug action, non-malignant cell line, read-out: IC50 (μM) ± S.D. MRC-5

compound	IC50
Cc1ccc(C(C)C)cc1.O=C1NCCc2ccccc2-c2[nH]c3ccc([N+]4=Cc5cccc[n+]5[Ru-]4[Cl])cc3c21.[Cl-] [1a]	89.8 µM
Cc1ccc(C(C)C)cc1.O=C1NCCc2ccccc2-c2[nH]c3ccc([N+]4=Cc5cccc[n+]5[Os-]4[Cl])cc3c21.[Cl-] [1b]	84.8 µM
N.N.[Cl][Pt][Cl] [CDDP, cis-diamminedichloridoplatinum(II), reference compound]	8 µM

Reference for the values: paper PMC9768754
